Test system: rodent lifetime carcinogenesis bioassay, tumor incidence TD50
assay-name: carcinogenic potency in animals, long-term in vivo studies, CPDB compilation (AID 1745844)
measurement-parameters: rat; strain MRC-Wistar; males; in drinking water; site: liver; lesion: hepatocellular carcinoma; dosed 41 weeks; study length 70 weeks
readout-name: TD50

response.value for O=NN1CCC(=O)NC1=O (field: TD50) = 0.0932 mg/kg/day

----------
Tested on: rodent lifetime carcinogenesis bioassay, tumor incidence TD50
assay-name: carcinogenic potency in animals, long-term in vivo studies, CPDB compilation (AID 1745844)
measurement-parameters: rat; strain F344/DuCrj; males; in feed; site: stomach, glandular; lesion: adenocarcinoma; dosed 96 weeks; study length 96 weeks
readout-name: TD50

Entry under test: Oc1ccccc1O . Its TD50 was 141 mg/kg/day

All values here come from PubChem BioAssay AID1745844.
